- TARGET OF ASSAY: Peroxisome proliferator-activated receptor gamma (Homo sapiens) (UniProt P37231)
- Sequence (whole entry): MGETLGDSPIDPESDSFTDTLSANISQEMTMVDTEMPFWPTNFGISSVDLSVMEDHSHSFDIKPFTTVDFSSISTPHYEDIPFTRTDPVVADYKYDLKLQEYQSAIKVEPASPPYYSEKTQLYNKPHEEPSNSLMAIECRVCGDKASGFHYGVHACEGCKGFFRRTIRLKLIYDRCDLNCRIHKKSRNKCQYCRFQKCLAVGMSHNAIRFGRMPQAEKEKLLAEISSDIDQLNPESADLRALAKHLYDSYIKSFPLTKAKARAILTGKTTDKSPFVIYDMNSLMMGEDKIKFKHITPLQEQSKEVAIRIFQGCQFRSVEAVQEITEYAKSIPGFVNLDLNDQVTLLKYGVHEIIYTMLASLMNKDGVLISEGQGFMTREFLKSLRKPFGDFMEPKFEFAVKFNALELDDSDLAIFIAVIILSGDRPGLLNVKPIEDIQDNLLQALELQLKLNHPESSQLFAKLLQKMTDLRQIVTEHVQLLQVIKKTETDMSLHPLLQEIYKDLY
- ASSAY SUMMARY: Agonist activity at PPARgamma (unknown origin) at 1 uM relative to telmisartan
OBSERVABLE: Activity (%)

Previously resolved entries follow.
Per the record, "CCCCc1nc(C)c(CC(=S)N2CC[C@@H]3CCCC[C@H]32)c(=O)n1Cc1ccc(-c2ccccc2-c2noc(=O)[nH]2)cc1" has Activity of 121

Per the record, "CCCCc1nc(C)c(CC(=S)N(C)C)c(=O)n1Cc1ccc(-c2ccccc2C(=O)O)cc1" has Activity of 140

Per the record, "CCCCc1nc(C)c(CC(=S)N(C)C)c(=O)n1Cc1ccc(-c2ccccc2-c2nnn[nH]2)cc1" has Activity of 0

Per the record, "CCCCc1nc(C)c(CC(=S)N2[C@H](C)CC[C@H]2C)c(=O)n1Cc1ccc(-c2ccccc2-c2noc(=O)[nH]2)cc1" has Activity of 100

Per the record, "CCCc1nc(C)c(CC(=S)N(C)C)c(=O)n1Cc1ccc(-c2ccccc2-c2noc(=O)[nH]2)cc1" has Activity of 100

Per the record, "CCCCc1nc(C)c(CC(=S)N(C)C)c(=O)n1Cc1ccc(-c2ccccc2-c2noc(=O)[nH]2)cc1" has Activity of 120

Per the record, "CCCCc1nc(C)c(CC(=S)N2CCOCC2)c(=O)n1Cc1ccc(-c2ccccc2-c2noc(=O)[nH]2)cc1" has Activity of 83

A = CCCCc1nc(C)c(CC(=S)N2CCCC2)c(=O)n1Cc1ccc(-c2ccccc2-c2noc(=O)[nH]2)cc1
B = Cc1nc(CC(C)C)n(Cc2ccc(-c3ccccc3-c3noc(=O)[nH]3)cc2)c(=O)c1CC(=S)N(C)C
Q: # argmax over Activity for candidates A and B Give the label of your selection.
Ans: A

Source of measurements: ChEMBL document CHEMBL4265900
